Would you mind telling me the reported pKi of each entry?
Molecular target: Stromelysin-1 (Homo sapiens)
Sequence (P08254 whole entry): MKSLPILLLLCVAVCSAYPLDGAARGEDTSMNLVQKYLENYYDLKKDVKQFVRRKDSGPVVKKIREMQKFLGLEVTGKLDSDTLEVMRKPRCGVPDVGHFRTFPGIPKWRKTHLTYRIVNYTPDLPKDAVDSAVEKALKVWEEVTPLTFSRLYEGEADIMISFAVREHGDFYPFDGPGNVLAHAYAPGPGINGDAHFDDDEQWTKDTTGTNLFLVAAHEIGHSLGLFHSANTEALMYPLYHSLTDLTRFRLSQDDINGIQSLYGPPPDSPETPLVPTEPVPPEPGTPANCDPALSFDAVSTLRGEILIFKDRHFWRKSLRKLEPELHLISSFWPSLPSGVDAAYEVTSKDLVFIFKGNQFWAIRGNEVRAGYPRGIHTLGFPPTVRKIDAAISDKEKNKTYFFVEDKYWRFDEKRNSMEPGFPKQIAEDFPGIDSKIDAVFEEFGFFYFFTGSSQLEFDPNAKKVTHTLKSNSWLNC
Assay: In vitro inhibition of human recombinant Matrix metalloprotease-3.
pKi: −log10 of the molar value.

Incoming: What measured pKi goes with COc1ccc(S(=O)(=O)C(CC(=O)NO)c2ccc(-c3ccccc3)cc2)cc1 (stereo not given) ?
Outgoing: < 5.00

Incoming: Find the recorded pKi belonging to COc1ccc(S(=O)(=O)C(CC(=O)NO)c2ccc(OCc3ccccc3)cc2)cc1 (stereo not given) and report it.
Outgoing: < 5.00

Incoming: I have this molecule here, COc1ccc(S(=O)(=O)C(CC(=O)NO)CC(C)CC(C)(C)C)cc1 (stereo not given) , and I need its recorded pKi.
Outgoing: 6.17

Incoming: May I ask what pKi has been recorded for COc1ccc(S(=O)(=O)C(CC(=O)NO)c2ccc(OC(C)C)cc2)cc1 (stereo not given) ?
Outgoing: < 5.00

Incoming: Record request: pKi value, item COc1ccc(S(=O)(=O)C(CC(=O)NO)c2ccc(Oc3ccccc3)cc2)cc1 (stereo not given)
Outgoing: < 5.00

====

Biological target: Interstitial collagenase (Homo sapiens)
Experiment: In vitro inhibition of human recombinant Matrix metalloprotease-1.
Kindly state Ki for each of the entries shown.

Incoming: I would be grateful if you could share the reported Ki for COc1ccc(S(=O)(=O)C(CC(=O)NO)c2ccccc2)cc1 (stereo not drawn) .
Outgoing: > 10 µM

Incoming: Quick check: Ki of COc1ccc(S(=O)(=O)C(CC(=O)NO)c2ccc(-c3ccccc3)cc2)cc1 (stereo not drawn) ?
Outgoing: > 10 µM

Incoming: Request the reported Ki associated with COc1ccc(S(=O)(=O)C(COCc2ccccc2)CC(=O)NO)cc1 (stereo not drawn)
Outgoing: > 10 µM

====

Molecular target: UniProt:P03956
Sequence (P03956 whole entry): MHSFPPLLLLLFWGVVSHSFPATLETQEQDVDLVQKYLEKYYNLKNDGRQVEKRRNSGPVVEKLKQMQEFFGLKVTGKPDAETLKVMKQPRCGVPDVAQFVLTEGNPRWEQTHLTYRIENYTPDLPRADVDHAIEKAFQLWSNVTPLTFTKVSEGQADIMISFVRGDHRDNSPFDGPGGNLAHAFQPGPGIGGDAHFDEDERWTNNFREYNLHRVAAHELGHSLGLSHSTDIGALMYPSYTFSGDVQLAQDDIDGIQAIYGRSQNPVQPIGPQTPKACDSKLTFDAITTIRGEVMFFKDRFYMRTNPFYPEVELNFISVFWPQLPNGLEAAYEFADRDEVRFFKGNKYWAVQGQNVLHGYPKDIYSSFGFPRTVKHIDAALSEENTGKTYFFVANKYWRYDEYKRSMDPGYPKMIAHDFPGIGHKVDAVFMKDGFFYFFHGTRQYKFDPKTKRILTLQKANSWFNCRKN
Assay: In vitro inhibition of human recombinant Matrix metalloprotease-1.
Record form. Attribute: Ki. Fill in for each entry.

Incoming: Given the entry COc1ccc(S(=O)(=O)C(CC(=O)NO)c2ccc(Oc3ccccc3)cc2)cc1 (stereo not drawn) , what Ki was observed with UniProt:P03956?
Outgoing: > 10 µM

Incoming: # value lookup — system UniProt:P03956, readout Ki, item COc1ccc(S(=O)(=O)C(CC(=O)NO)c2ccc(OCc3ccccc3)cc2)cc1 (stereo not drawn)
Outgoing: > 10 µM

Incoming: Identify the measured Ki of COc1ccc(S(=O)(=O)C(CC(=O)NO)c2ccc(OC(C)C)cc2)cc1 (stereo not drawn) for UniProt:P03956.
Outgoing: > 10 µM

====

Biological target: 72 kDa type IV collagenase (Homo sapiens, UniProt P08253)
Sequence (P08253 whole entry): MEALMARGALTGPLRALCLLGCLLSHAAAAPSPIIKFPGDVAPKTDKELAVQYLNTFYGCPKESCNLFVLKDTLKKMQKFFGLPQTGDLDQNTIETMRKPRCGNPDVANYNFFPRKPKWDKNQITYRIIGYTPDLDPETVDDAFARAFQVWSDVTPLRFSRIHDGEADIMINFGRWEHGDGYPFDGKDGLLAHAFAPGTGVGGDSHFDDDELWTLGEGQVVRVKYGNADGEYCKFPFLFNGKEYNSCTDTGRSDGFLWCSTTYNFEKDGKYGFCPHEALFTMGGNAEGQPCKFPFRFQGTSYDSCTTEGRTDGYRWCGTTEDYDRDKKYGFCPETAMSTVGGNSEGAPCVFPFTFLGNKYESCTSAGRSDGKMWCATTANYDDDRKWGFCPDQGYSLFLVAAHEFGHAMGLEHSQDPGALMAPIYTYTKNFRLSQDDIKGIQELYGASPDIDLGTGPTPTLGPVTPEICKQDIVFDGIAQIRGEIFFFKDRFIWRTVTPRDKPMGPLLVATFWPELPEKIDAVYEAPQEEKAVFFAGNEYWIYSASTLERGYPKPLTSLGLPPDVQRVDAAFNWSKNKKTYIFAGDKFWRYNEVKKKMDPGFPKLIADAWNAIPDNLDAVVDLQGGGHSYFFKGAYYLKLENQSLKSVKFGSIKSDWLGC
Test: Inhibitory activity against recombinant matrix metalloprotease-2
READOUT NAME: IC50

Incoming: Query (compound): COc1ccc(S(=O)(=O)C(CCN(C)C(=O)OCc2ccccc2)CC(=O)NO)cc1OC1CCCC1 (stereo unspecified) ; field requested: IC50
Outgoing: > 10 µM

Incoming: Item COc1ccc(S(=O)(=O)C(CCN(C)C(=O)c2ccccc2)CC(=O)NO)cc1OC1CCCC1 (stereo unspecified) has what recorded IC50?
Outgoing: > 10 µM

Incoming: Query: IC50; subject: COc1ccc(Oc2cccc(C(CC(=O)NO)S(=O)(=O)c3ccc(OC)c(OC4CCCC4)c3)c2)cc1 (stereo unspecified)
Outgoing: > 10 µM

Incoming: IC50 lookup needed for CCCCCCC(CC(=O)NO)S(=O)(=O)c1ccc(OC)c(OC2CCCC2)c1 (stereo unspecified) , thanks.
Outgoing: > 10 µM

Incoming: Entry COc1ccc(S(=O)(=O)C(CCc2ccc(Oc3ccccc3)cc2)CC(=O)NO)cc1OC1CCCC1 (stereo unspecified) has what IC50?
Outgoing: > 10 µM

Incoming: Fill blank: measured IC50 of the compound COc1ccc(S(=O)(=O)C(CCOC(=O)N(C)c2ccccc2)CC(=O)NO)cc1OC1CCCC1 (stereo unspecified) is ____.
Outgoing: > 10 µM

Incoming: Item under review: CCCC(CC(=O)NO)S(=O)(=O)c1ccc(OC)c(OC)c1 (stereo unspecified) . Reported IC50?
Outgoing: > 10 µM

Incoming: I'd like to know its IC50. The compound in question is COc1ccc(S(=O)(=O)C(CCCCc2ccccc2)CC(=O)NO)cc1OC1CCCC1 (stereo unspecified)
Outgoing: > 10 µM

Incoming: I am curious: what IC50 value has been reported for COc1ccc(S(=O)(=O)C(CC(=O)NO)c2ccccc2OCc2ccccc2)cc1OC1CCCC1 (stereo unspecified) ?
Outgoing: > 10 µM

Incoming: Would you mind telling me what IC50 value was observed for COc1ccc(S(=O)(=O)C(CCc2ccccc2)CC(=O)NO)cc1OC (stereo unspecified) ?
Outgoing: > 10 µM

Incoming: // IC50 lookup, key: COc1ccc(S(=O)(=O)C(CC(=O)NO)c2cccc(Oc3ccccc3)c2)cc1OC1CCCC1 (stereo unspecified)
Outgoing: > 10 µM

Incoming: Which IC50 is reported for this compound? COc1ccc(S(=O)(=O)C(CC(=O)NO)CN(C)C(=O)c2ccccc2)cc1OC1CCCC1 (stereo unspecified)
Outgoing: > 10 µM

Incoming: // lookup IC50 for COc1ccc(S(=O)(=O)C(CCCCc2ccc3c(c2)OCO3)CC(=O)NO)cc1OC1CCCC1 (stereo unspecified)
Outgoing: > 10 µM

Incoming: Using the record for COc1ccc(S(=O)(=O)C(CCCC(=O)N2CCCc3ccccc32)CC(=O)NO)cc1OC (stereo unspecified) , report its IC50.
Outgoing: > 10 µM

Incoming: What value of IC50 has been reported for the following compound? COc1ccc(S(=O)(=O)C(CCCC(=O)N2CCCc3ccccc32)CC(=O)NO)cc1OC1CCCC1 (stereo unspecified)
Outgoing: > 10 µM

Incoming: // lookup IC50 for COc1ccc(S(=O)(=O)C(CCCc2ccccc2)CC(=O)NO)cc1OC (stereo unspecified)
Outgoing: > 10 µM

Incoming: Request the reported IC50 associated with COc1ccc(S(=O)(=O)C(CCC(=O)N2CCCc3ccccc32)CC(=O)NO)cc1OC (stereo unspecified)
Outgoing: > 10 µM

Incoming: Which IC50 reading was recorded for the compound COc1ccc(S(=O)(=O)C(CCCCc2ccccc2)CC(=O)NO)cc1OC (stereo unspecified) ?
Outgoing: > 10 µM

Incoming: # get_value(readout='IC50', item= COc1ccc(S(=O)(=O)C(CCc2ccccc2)CC(=O)NO)cc1OC1CCCC1 (stereo unspecified) )
Outgoing: > 10 µM

Incoming: Consider the compound COc1ccc(S(=O)(=O)C(CC(=O)NO)c2ccc(OCc3ccccc3)cc2)cc1OC1CCCC1 (stereo unspecified) and give its measured IC50.
Outgoing: > 10 µM

Incoming: Which IC50 is listed for COc1ccc(S(=O)(=O)C(CC(=O)NO)CC(C)C)cc1OC1CCCC1 (stereo unspecified) ?
Outgoing: > 10 µM

====

Test: In vitro for the inhibition of TNF alpha release by human peripheral blood monocytes (PBMs)
Type: functional
Kindly supply the reported IC50 values for the records listed here.
State just the number; it will be interpreted in nM.

Incoming: Recorded IC50 of COc1ccc(S(=O)(=O)C(CC(=O)NO)c2ccc(OCc3ccccc3)cc2)cc1 (stereo not drawn) , please.
Outgoing: 1200

Incoming: Dear colleague, I am looking for the recorded IC50 of the following compound: COc1ccc(S(=O)(=O)C(CC(=O)NO)c2ccc(Oc3ccccc3)cc2)cc1 (stereo not drawn)
Outgoing: 730

Incoming: Need IC50, item CCCCCCC(CC(=O)NO)S(=O)(=O)c1ccc(OC)cc1 (stereo not drawn)
Outgoing: 1400
